Test: protein stability index of a GFP-peptide fusion (yeast GPS) (PSI 1-4); higher = more stable; sorted into four equal gates, so the index is relative within each strain
Settings: pdr5∆
Listing of entries alongside the reported protein stability index.
Write the number on its own, no unit after it.

See these solved cases before continuing.
The measured protein stability index associated with VLSTFTAEFGKILAGLH [RPN10] reads 3.44

So, KNYTTETDNEMNGNGKP [SIR3] ? Its protein stability index was 3.37

Others:
Item: IIANINSFTKGNVFSPI [SNU114] | protein stability index: 2.54

The sequence identified as IWVGEWKEVLAHNPELE [RPO31] registered its protein stability index at 2.36

Briefly, protein stability index measured for KQENSTLLKKANRDDVK [RPC82] : 2.51

Measured protein stability index of TSGKVELPKKLLNLPPF [SRB8] : 3.1

Sample NATVNLAMEAILNELEV [YJR042W/NUP85] ; protein stability index observed: 3

What the record says about EEESLHVFQYANRPRLV [RPC37] : protein stability index is 1.66

Note to self: protein stability index recorded for PSAGPHKLRESLPLIVF [RPS4A] was 1.75

The value of protein stability index measured for the sequence SLTDVAFFTYDAGVTFN [ECM29] turned out to be 2.34

Form field protein stability index, entry NGVRALFHSCTRIQYVD [GRR1] : 2.31

For this sequence ( NTNGTNASANSTSFSFN [YOR098C/NUP1] ), measured protein stability index is 3.12

The measured protein stability index associated with MSSTTPKLESVKWQYDP [SNF12] reads 3.25

Reported protein stability index of KEYQCSAVIIDEFKDIT [YIL149C/MLP2] : 2.75

* * *

protein stability index for assorted sequences
Test: protein stability index of a GFP-peptide fusion (yeast GPS) (PSI 1-4); higher = more stable; sorted into four equal gates, so the index is relative within each strain
Details: doa10∆
Enter a number only.

Measured protein stability index of SVFYNIANMVLPPEKIY [SIR2] : 1.78

protein stability index in this record for LLGIFDDIFIPQNMLFE [RPC25] : 2.33

Reported protein stability index ( VAAFVNNYPNVELTYSL [BRR2] ) = 2.61

The measured protein stability index associated with GTISKLENKENGLLNEI [SMC2] reads 3.45

Measured protein stability index, PSAGPHKLRESLPLIVF [RPS4A] : 1.76

sequence TGWISKCTAEGIKVSLL [RPC25] , protein stability index observed: 2.9

The sequence listed as AGCKIDNVDDIGEFNVS [YDL088C/ASM4] shows protein stability index equal to 3.25

// recorded protein stability index for LAPNMQLNGNETFSTSA [SNF2] : 3.15

protein stability index for EVPEGVTVSIKSRIVKV [RPL9A] is 1.51

In plain terms, GNGEGLGGDSDEANIEI [BRN1] has a documented protein stability index of 3.11

More entries:
protein stability index recorded for this sequence, REASKDNVDFILSNVDL [RPB3] , is 3.49

For reference, reported protein stability index for TYIKSEITQQEKGLNEL [SMC4] stands at 1.88

Record EKITQISLLCKNFKGIE [PCI8] , field protein stability index: 2.41

Measured protein stability index, WMMNGALQILNSGIIPG [FAS2] : 1.7

According to the records, this sequence LVQLEPHLFVNGDLTVS [SSN2] displays protein stability index of 1.77

Recorded result, PVIDYELKEITSLPDWC [BRR2] , protein stability index: 2.8

protein stability index measured on FINNVLSNPSNQNICTS [GRR1] = 2.42

Please fill in: protein stability index reported for MYTRLCICSGMLFEMDG [SIN4] = 1.45

Recorded result, EKGNAKMIDFATLSKLK [SIR3] , protein stability index: 3.15
